Assay System: K18PL tau (Homo sapiens, UniProt P10636, P618L)
Construct: (K18PL; amino acids 244-369); made in house
Sequence (P10636 561-686 P618L): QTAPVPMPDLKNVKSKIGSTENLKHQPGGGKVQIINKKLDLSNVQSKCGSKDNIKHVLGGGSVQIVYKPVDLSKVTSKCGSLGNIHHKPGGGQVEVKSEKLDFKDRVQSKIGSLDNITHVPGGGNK
Assay Notes: K18PL tau centrifugation (sedimentation) assay, SDS-PAGE densitometry
Assay type: biochemical
Experimental Parameters: Table 4; K18PL tau centrifugation assay
Metric: Tau Cent. Assay % Soluble (%)
Give bare numbers, in %.

Please review the following examples before continuing.
CC(C)NC(=O)c1nn(-c2ccc(O)cc2)c(=O)c2c(N)scc12: 84
CCOC(=O)c1nn(-c2ccccc2Cl)c(=O)c2c(N)scc12: 61

Respectfully, I request Tau Cent. Assay % Soluble for each entry included below.
1. CCOC(=O)c1nn(-c2ccccc2F)c(=O)c2c(N)scc12
2. CCOC(=O)c1nn(-c2ccc(C(F)(F)F)cc2)c(=O)c2c(N)scc12
3. NNC(=O)c1nn(-c2ccc(Cl)cc2)c(=O)c2c(N)scc12
4. CCOC(=O)c1nn(-c2ccc(NC)cc2)c(=O)c2c(N)scc12

stdout:
41
27
77
61

====

Assay System: K18PL tau (Homo sapiens, UniProt P10636, P618L)
Construct: (K18PL; amino acids 244-369); made in house
Assay Notes: Heparin-induced K18PL tau fibrillization assay monitored by ThT fluorescence
Assay type: biochemical
Experimental Parameters: Table 4; highest tested concentration (80 μM); read-out: Tau ThT Assay % Inhib.
In this scheme, each record receives a class according to its inhibition at 80 µM; the ranges are group 1 (below 70%), group 2 (70% to below 80%), group 3 (80% or more)

Completed entries (count: 10):
Nc1scc2c(C(=O)O)nn(-c3ccc(O)cc3)c(=O)c12: group 3
CCOC(=O)c1nn(-c2ccc(N)cc2)c(=O)c2c(N)scc12: group 2
CCOC(=O)c1ccccc1-n1nc(C(=O)OCC)c2csc(N)c2c1=O: group 1
CCOC(=O)c1nn(-c2ccc(Cl)cc2)c(=O)c2c(N)sc(Cl)c12: group 3
CC(C)NC(=O)c1nn(-c2ccc(OC(F)(F)F)cc2)c(=O)c2c(N)scc12: group 1
CCOC(=O)c1nn(-c2ccc(F)cc2)c(=O)c2c(N)scc12: group 2
CCOC(=O)c1nn(-c2ccc(Cl)cc2)c(=O)c2c(N)sc(Br)c12: group 3
CCOC(=O)c1nn(-c2ccc(NC)cc2)c(=O)c2c(N)scc12: group 2
Nc1scc2c(C(=O)O)nn(-c3ccc(F)cc3)c(=O)c12: group 3
CCOC(=O)c1nn(-c2ccc(C(F)(F)F)cc2)c(=O)c2c(N)scc12: group 1

stdin: Record `CCOC(=O)c1nn(-c2ccc(I)cc2)c(=O)c2c(N)scc12` — which class?
stdout: group 3

====

Assay System: K18PL tau (Homo sapiens, UniProt P10636, P618L)
Construct: (K18PL; amino acids 244-369); made in house
Assay Notes: Heparin-induced K18PL tau fibrillization assay monitored by ThT fluorescence
Assay type: biochemical
Experimental Parameters: Table 3; highest tested concentration (80 μM); read-out: Tau ThT Assay % Inhib.
Metric: inhibition at 80 µM (%)
One number for each entry, in %.

COC(=O)c1nn(-c2cccc(C(F)(F)F)c2)c(=O)c2c(N)scc12 [Compound 19]: 66
CC(=O)Nc1sc(C)c2cnn(-c3ccccc3)c(=O)c12 [Compound 16]: 11
COc1ccc(-n2nc(C(=O)O)c3csc(N)c3c2=O)cc1 [Compound 6b]: 94
CCOC(=O)c1nn(-c2ccccc2)c(=O)c2c(NC(=O)c3ccccc3)scc12 [Compound 9c]: 8
NC(=O)c1nn(-c2ccccc2)c(=O)c2c(N)scc12 [Compound 8c]: 93

Go through the items and report each one's inhibition at 80 µM.
1. Nc1nn(-c2ccccc2)c(=O)c2c(N)scc12 [Compound 14]
2. Nc1scc2c(C(=O)N3CCOCC3)nn(-c3ccccc3)c(=O)c12 [Compound 8b]
3. CCOC(=O)c1nn(-c2ccc(C)cc2)c(=O)c2c(N)scc12 [Compound 5h]
4. CCOC(=O)c1ccc(-n2nc(C(=O)OCC)c3csc(N)c3c2=O)cc1 [Compound 5e]
5. CCOC(=O)c1nn(-c2ccc(Cl)c(Cl)c2)c(=O)c2c(N)scc12 [Compound 5g]

stdout:
92
81
51
29
29

stdin: Record request: inhibition at 80 µM value, item Nc1scc2c(C(=O)O)nn(-c3ccccc3)c(=O)c12 [Compound 6a]
stdout: 92
